# ASSAY_TEXT: resazurin metabolic signal in A549 cells – cell-based, resazurin fluorescence, 24 h, PK04 Diversity Set, profiling panel (AID 1171); also: test concentration not given here
# CONDITION_CONTEXT: A549 viability, higher = more signal, called active from +8 up or from −8 down
One threshold, 0.3, splits the recorded z-score values: lower ones are True, equal or higher ones are False.

Solved cases (4 shown):
[
  {
    "MOLECULE": "COC(=O)[C@@]1(Cc2ccc(F)cc2)[C@H]2c3cc(C(=O)N(C)C)n(Cc4ccc(OC(F)(F)F)cc4)c3C[C@H]2CN1C(=O)c1ccccc1",
    "GROUP_LABEL": "True"
  },
  {
    "MOLECULE": "COCCOC(=O)N1C(=O)[C@@]2(c3cc(C#CCNC(N)=O)ccc31)[C@H](C(N)=O)[C@H]1C(=O)O[C@H](c3ccccc3)[C@H](c3ccccc3)N1[C@@H]2c1ccccc1OCCO",
    "GROUP_LABEL": "True"
  },
  {
    "MOLECULE": "COCCOC(=O)N1C(=O)[C@@]2(c3cc(C#CC4(O)CCCCCC4)ccc31)[C@H](c1ccc(O)cc1)N1[C@H](c3ccccc3)[C@H](c3ccccc3)OC(=O)[C@H]1[C@@H]2C(=O)N1CCN(c2ncccn2)CC1",
    "GROUP_LABEL": "False"
  },
  {
    "MOLECULE": "CCC1=C2CN(Cc3ccccc3)[C@@H](C(=O)Cc3ccccc3)C2C=CCC1 (some centres undefined)",
    "GROUP_LABEL": "False"
  }
]

Confirm or reject: z-score of `COC(=O)[C@@]1(Cc2ccc(F)cc2)[C@H]2c3cc(C(=O)N4CCCC4)n(Cc4ccc(C)c(F)c4F)c3C[C@H]2CN1C(=O)c1ccccc1` lies strictly below 0.3
True

Decide: z-score of `CCOC(=O)C[C@H]1[C@H](OC(=O)c2cc3ccccc3oc2=O)[C@@H](NC(=O)c2ccccc2)c2cc(OCCCO)ccc2N1C(=O)c1ccccc1` strictly below 0.3?
True

Regarding CCCCCN1CC=CC23O[C@@H]4C=CCCOC(=O)C4[C@H]2C(=O)N(CCCCCCO)[C@@H]3C1=O (some centres undefined) , kindly confirm whether its z-score is beneath 0.3.
True

z-score strictly < 0.3 for this molecule? CC(c1ccccc1)C(O)C1C=CC2C(=O)N(C)C(=O)C2N1Nc1ccccc1 (centres undefined)
True

Does this molecule meet the criterion z-score < 0.3? `NCCCCCNC(=O)[C@@H]1C[C@@H]2C(=O)N[C@@H](CCCCN)C(=O)N2[C@@H]1c1ccc(O)cc1`
True

# TODO verify z-score < 0.3 strictly for this molecule: `COc1ccc([Si](C)(C)[C@H]2[C@H](CC(=O)N(CCO)Cc3ccccc3)O[C@@]3(C(=O)N(C)c4c(Br)cc(C)cc43)[C@@H]2C)cc1`
True

State whether 0.3 exceeds z-score recorded for `COC(=O)C/C=C/C[C@]1(O)C(=O)N(C)c2ccccc21` .
False

Confirm or reject: z-score of `C=C(COC)/C(=C/C[C@H](OC(=O)c1ccncc1)c1ccccc1OCCO)c1cc(C(=O)OC)ccc1OC` lies strictly below 0.3
False

Strictly below 0.3: is that where z-score of `Cc1ccc(S[C@]2(C(=O)NCC(F)(F)F)CC(=O)N(Cc3cc(C(F)(F)F)cc(C(F)(F)F)c3)[C@@H]2c2ccc(CO)cc2)cc1` sits?
True

Find out if reported z-score for `CC[C@@H]1O[Si](C(C)C)(C(C)C)c2c1cc(-c1cc(C)c(OC)c(C)c1)nc2-c1ccc(Oc2ccccc2)cc1` is less than 0.3
False
